# TEST NAME: Observed volume of distribution at steady state in rat at 1 mg/kg, iv
# Format: ADME, organism-based
# CONDITION SET: in vivo, read-out: Vdss
API: label(entry) gives t if the entry's Vd is strictly smaller than 4 L/kg; on equality or larger values it gives f.

In: Please check: Vd for "Cc1cc(OCc2cccc(-c3ccc4c(c3)OCCO4)c2C)cc(OCc2cccc(C#N)c2)c1CN[C@H](CO)C(=O)O" , strictly under 4 L/kg or not?
Out: t

In: Entry "Cc1c(-c2ccc3c(c2)OCCO3)cccc1C(F)(F)Oc1cc(OCc2ccnc(C#N)c2)c(CN[C@@H](CO)[C@@H](O)[C@@H](O)[C@H](O)CO)cc1Cl" please
Out: f

In: Lookup "Cc1c(-c2ccc3c(c2)OCCO3)cccc1C(F)(F)Oc1cc(OCc2ccnc(C#N)c2)c(CN2CCCC[C@H]2C(=O)O)cc1Cl"
Out: f

In: Queued: "Cc1c(-c2ccc3c(c2)OCCO3)cccc1C(F)(F)Oc1cc(OCc2cncc(C#N)c2)c(CNC(CO)(CO)CO)cc1Cl"
Out: f

---

# TEST NAME: AUClast in rat at 1 mg/kg, iv
# Format: ADME, organism-based
# Set-up: time 0 - last, route intravenous, dose 1 mg/kg
# CONDITION SET: in vivo
I'd appreciate it if you could supply AUC(0-t) values for the items below.
One number for each entry, in ng·h/mL.

# example entries with known answers
Cc1c(-c2ccc3c(c2)OCCO3)cccc1C(F)(F)Oc1cc(OCc2ccnc(C#N)c2)c(CN2CCCC[C@H]2C(=O)O)cc1Cl :: 117
Cc1c(-c2ccc3c(c2)OCCO3)cccc1C(F)(F)Oc1cc(OCc2ccnc(C#N)c2)c(CN[C@@H](CO)[C@@H](O)[C@@H](O)[C@H](O)CO)cc1Cl :: 141
Cc1cc(OCc2cccc(-c3ccc4c(c3)OCCO4)c2C)cc(OCc2cccc(C#N)c2)c1CN[C@H](CO)C(=O)O :: 142
Cc1c(-c2ccc3c(c2)OCCO3)cccc1C(F)(F)Oc1cc(OCc2ccnc(C#N)c2)c(CN[C@@H]2C(O)O[C@H](CO)[C@@H](O)[C@@H]2O)cc1Cl (stereo not given in full) :: 464

Consider the additional compound presented here.
In: Which value of AUC(0-t) has been reported for "Cc1c(-c2ccc3c(c2)OCCO3)cccc1C(F)(F)Oc1cc(OCc2cncc(C#N)c2)c(CNC(CO)(CO)CO)cc1Cl" in the records?
Out: 188

---

# TEST NAME: Cmax in rat at 3 mg/kg, po
# Assay type: ADME, organism-based
# Set-up: route oral, dose 3 mg/kg
# CONDITION SET: in vivo
RECORDED METRIC: Cmax (ng/mL)
Numbers only, in ng/mL.

Cc1c(-c2ccc3c(c2)OCCO3)cccc1C(F)(F)Oc1cc(OCc2ccnc(C#N)c2)c(CN2CCCC[C@H]2C(=O)O)cc1Cl :: 0.698

Continue with the next compound.
In: # Cmax lookup, item "Cc1c(-c2ccc3c(c2)OCCO3)cccc1C(F)(F)Oc1cc(OCc2cncc(C#N)c2)c(CNC(CO)(CO)CO)cc1Cl"
Out: 4.82

---

# TEST NAME: Observed clearance in rat at 1 mg/kg, iv
# Assay type: ADME, organism-based
# CONDITION SET: in vivo
Threshold check on clearance: strictly below 100 mL/min/kg is 1; on or above 100 mL/min/kg is -1.

In: API: query returns whether the molecule falls strictly under 100 mL/min/kg in clearance. Query: Cc1c(-c2ccc3c(c2)OCCO3)cccc1C(F)(F)Oc1cc(OCc2ccnc(C#N)c2)c(CN[C@@H]2C(O)O[C@H](CO)[C@@H](O)[C@@H]2O)cc1Cl (stereo not given in full)
Out: 1

In: Another molecule to check: "Cc1c(-c2ccc3c(c2)OCCO3)cccc1C(F)(F)Oc1cc(OCc2cncc(C#N)c2)c(CNC(CO)(CO)CO)cc1Cl"
Out: 1
